The origin of these recorded values is the OligoGym collection.

Biological target: APOL1
Settings: ASO, A431, 0.0625 µM
After the bases stand the sugars from the 5' end (letter, count) and the backbone: PS all phosphorothioate, else s phosphorothioate and o phosphodiester by linkage. Methylation of C is not given here. e = 2'-O-(2-methoxyethyl) (MOE); k = constrained ethyl (cEt); d = 2'-deoxy (DNA)
Output Met for target mRNA inhibition not less than 50%; output Not met otherwise.

Inquiry: Reported target mRNA inhibition reaches at least 50% for CGCAATGCTGACTTGG (sugars kkddddekekeddddd, PS) ?
Reply text: Not met

Inquiry: Reported target mRNA inhibition reaches at least 50% for GCAATGCTGACTTGGC (sugars kkddddkekekkdddd, PS) ?
Reply text: Not met

Inquiry: Reported target mRNA inhibition reaches at least 50% for TACTTCTGTTAGATAC (sugars k4 d9 k3, PS) ?
Reply text: Not met

Inquiry: Reported target mRNA inhibition reaches at least 50% for CCTCATTGCAAATCCT (sugars k4 d9 k3, PS) ?
Reply text: Met

Inquiry: Reported target mRNA inhibition reaches at least 50% for TCAACACATCATTGGG (sugars k4 d9 k3, PS) ?
Reply text: Not met

Inquiry: Reported target mRNA inhibition reaches at least 50% for TCCAGATGTGTTTAGG (sugars k4 d9 k3, PS) ?
Reply text: Met

---

Biological target: MALAT1
Details: ASO, A431, 0.005 µM
After the bases stand the sugars from the 5' end (letter, count) and the backbone: PS all phosphorothioate, else s phosphorothioate and o phosphodiester by linkage. Methylation of C is not given here. k = constrained ethyl (cEt); d = 2'-deoxy (DNA)
Output Y for target mRNA inhibition not less than 20%; output N otherwise.

Below, 5 sequences whose answers are already recorded.
[[record]]
sequenceentry = "TTAAGAGCTGCTATAA (sugars k3 d10 k3, PS)"
answerlabel = "N"

[[record]]
sequenceentry = "CTTCTGAACCGGAGCA (sugars k3 d10 k3, PS)"
answerlabel = "N"

[[record]]
sequenceentry = "CCCCAGTTCAATACTT (sugars k3 d10 k3, PS)"
answerlabel = "Y"

[[record]]
sequenceentry = "CCCCACGCCAACACAG (sugars k3 d10 k3, PS)"
answerlabel = "N"

[[record]]
sequenceentry = "TAACTACCAGCCATTT (sugars k3 d10 k3, PS)"
answerlabel = "Y"


Inquiry: Reported target mRNA inhibition reaches at least 20% for GGACAGCTAAGATAGC (sugars k3 d10 k3, PS) ?
Reply text: Y

Inquiry: Reported target mRNA inhibition reaches at least 20% for CAACATATTGCCGACC (sugars k3 d10 k3, PS) ?
Reply text: N

---

Biological target: APOL1
Details: ASO, A431, 2 µM
After the bases stand the sugars from the 5' end (letter, count) and the backbone: PS all phosphorothioate, else s phosphorothioate and o phosphodiester by linkage. Methylation of C is not given here. e = 2'-O-(2-methoxyethyl) (MOE); k = constrained ethyl (cEt); d = 2'-deoxy (DNA)
Output class 1 for target mRNA inhibition not less than 80%; output class 0 otherwise.

Inquiry: Reported target mRNA inhibition reaches at least 80% for TTCTATTAGAGGGCTA (sugars kkddddkekekkdddd, PS) ?
Reply text: class 0

Inquiry: Reported target mRNA inhibition reaches at least 80% for GTGAGTATTGTTTTTG (sugars kkddddekekeddddd, PS) ?
Reply text: class 1

Inquiry: Reported target mRNA inhibition reaches at least 80% for GAATTATGGAATTGCA (sugars kkddddkekekddddd, PS) ?
Reply text: class 0

Inquiry: Reported target mRNA inhibition reaches at least 80% for GAAGATTGGCTCTGGC (sugars k3 d4 k3 e1 d5, PS) ?
Reply text: class 0

Inquiry: Reported target mRNA inhibition reaches at least 80% for GTATTGTTTTTGTGGG (sugars kkddddkekekkdddd, PS) ?
Reply text: class 0

Inquiry: Reported target mRNA inhibition reaches at least 80% for GTATTTCTTGATGTGG (sugars kekddddeekkddddd, PS) ?
Reply text: class 1
